experiment: Drug concentration in plasma of C57BL/6 mouse implanted with mouse B16-F10 cells at 50 mg/kg, ip measured after 0.5 hrs by UPLC-MS/MS analysis; assay type: ADME, organism-based
measurement_kind: concentration at 0.5 h (ng/mL)
Your answer is read as ng/mL, so omit the unit and give the number.

Q: Looking for the measured concentration at 0.5 h of Cc1c(COc2cc(OCc3cccc(C#N)c3)c(CN3CCCCC3C(=O)NCCNC(=O)CCCC[C@@H]3SC[C@@H]4NC(=O)N[C@@H]43)cc2Cl)cccc1-c1ccccc1 (stereo partly specified) , can you help?
Ans: 910

###

assay: Drug concentration in spleen of C57BL/6 mouse implanted with mouse B16-F10 cells at 50 mg/kg, ip measured after 4 hrs by UPLC-MS/MS analysis; assay type: ADME, organism-based; settings: read-out: Ct
measurement_kind: concentration at 4 h (ng/mL)
Expressed in ng/mL, but write only the number.

Q: Endpoint output: concentration at 4 h of Cc1c(COc2cc(OCc3cccc(C#N)c3)c(CN3CCCCC3C(=O)NCCNC(=O)CCCC[C@@H]3SC[C@@H]4NC(=O)N[C@@H]43)cc2Cl)cccc1-c1ccccc1 (stereo partly specified) . Value?
Ans: 7570

###

target: Programmed cell death protein 1/Programmed cell death 1 ligand 1 (Homo sapiens) (UniProt Q15116+Q9NZQ7); experiment: Inhibition of GST-tagged PD-1 (unknown origin)/His-tagged PD-L1 (unknown origin) interaction at 10 nM by HTRF binding assay relative to control; format: protein-complex assay
measurement_kind: inhibition (%)
Write the value in % as a bare number.

| molecule | inhibition (%) |
| --- | --- |
| Cc1c(COc2cc(OCc3cccc(C#N)c3)c(CN3CCCCC3C(=O)NCCNC(=O)CCCC[C@H]3SC[C@H]4NC(=O)N[C@H]43)cc2Cl)cccc1-c1ccc2c(c1)OCCO2 (stereo partly drawn) | 26.8 |
| Cc1c(COc2cc(OCc3cccc(C#N)c3)c(CN3CCCCC3C(=O)NC3CCN(C(=O)CCCC[C@@H]4SC[C@@H]5NC(=O)N[C@@H]54)CC3)cc2Cl)cccc1-c1ccccc1 (stereo partly drawn) | 29.1 |

Q: inhibition for Cc1c(COc2cc(OCc3cccc(C#N)c3)c(CNC(C)(C)C(=O)N3CCN(C(=O)CCCC[C@H]4SC[C@H]5NC(=O)N[C@H]54)CC3)cc2Cl)cccc1-c1ccc2c(c1)OCCO2 ?
Ans: 9.1

###

target: Programmed cell death protein 1/Programmed cell death 1 ligand 1 (Homo sapiens) (UniProt Q15116+Q9NZQ7); assay: Inhibition of GST-tagged PD-1 (unknown origin)/His-tagged PD-L1 (unknown origin) interaction at 10 nM by HTRF binding assay relative to control; assay type: protein-complex assay
Use 90% as the dividing line for inhibition, with the line itself on the true (1) side and lower values as false (0).

Solved cases below.
| compound | class_name |
| --- | --- |
| Cc1c(COc2cc(OCc3cccc(C#N)c3)c(CNC(C)(C)C(=O)NC3CCN(C(=O)CCCC[C@H]4SC[C@H]5NC(=O)N[C@H]54)CC3)cc2Cl)cccc1-c1ccccc1 | false (0) |
| Cc1c(COc2cc(OCc3cccc(C#N)c3)c(CN3CCCCC3C(=O)NCCNC(=O)CCCC[C@@H]3SC[C@@H]4NC(=O)N[C@@H]43)cc2Cl)cccc1-c1ccccc1 (stereo partly specified) | true (1) |

Q: Could you please find out whether Cc1c(COc2cc(OCc3cccc(C#N)c3)c(CNC(C)(C)C(=O)NCCCNC(=O)CCCC[C@@H]3SC[C@@H]4NC(=O)N[C@@H]43)cc2Cl)cccc1-c1ccccc1 has inhibition that meets 90% or exceeds it?
Ans: false (0)

Q: inhibition >= 90% for Cc1c(COc2cc(OCc3cccc(C#N)c3)c(CN3CCCCC3C(=O)NCCCNC(=O)CCCC[C@@H]3SC[C@@H]4NC(=O)N[C@@H]43)cc2Cl)cccc1-c1ccccc1 (stereo partly specified) ?
Ans: false (0)

Q: Decide: is the reported value of inhibition for Cc1c(COc2cc(OCc3cccc(C#N)c3)c(CN3CCCCC3C(=O)N3CCN(C(=O)CCCC[C@@H]4SC[C@@H]5NC(=O)N[C@@H]54)CC3)cc2Cl)cccc1-c1ccccc1 (stereo partly specified) equal to or greater than 90%?
Ans: true (1)

Q: Can Cc1c(COc2cc(OCc3cccc(C#N)c3)c(CNC(C)(C)C(=O)NCCNC(=O)CCCC[C@H]3SC[C@H]4NC(=O)N[C@H]43)cc2Cl)cccc1-c1ccc2c(c1)OCCO2 be said to have inhibition at or above 90%?
Ans: false (0)

###

experiment: Drug concentration in liver of C57BL/6 mouse implanted with mouse B16-F10 cells at 50 mg/kg, ip measured after 2 hrs by UPLC-MS/MS analysis; type: ADME, organism-based; details: read-out: Ct
measurement_kind: concentration at 2 h (ng/mL)
Just the number please, in ng/mL, no unit attached.

Q: Recorded concentration at 2 h for Cc1c(COc2cc(OCc3cccc(C#N)c3)c(CN3CCCCC3C(=O)NCCNC(=O)CCCC[C@@H]3SC[C@@H]4NC(=O)N[C@@H]43)cc2Cl)cccc1-c1ccccc1 (stereo partly specified) , please?
Ans: 1670

###

assay: Drug concentration in lung of C57BL/6 mouse implanted with mouse B16-F10 cells at 50 mg/kg, ip measured after 0.5 hrs by UPLC-MS/MS analysis; format: ADME, organism-based; conditions: read-out: Ct
measurement_kind: concentration at 0.5 h
A complete answer gives the number followed by the unit.

Q: I am curious: what concentration at 0.5 h value has been reported for Cc1c(COc2cc(OCc3cccc(C#N)c3)c(CN3CCCCC3C(=O)NCCNC(=O)CCCC[C@@H]3SC[C@@H]4NC(=O)N[C@@H]43)cc2Cl)cccc1-c1ccccc1 (stereo partly specified) ?
Ans: 285 ng/mL

###

experiment: Drug concentration in plasma of C57BL/6 mouse implanted with mouse B16-F10 cells at 50 mg/kg, ip measured after 4 hrs by UPLC-MS/MS analysis; type: ADME, organism-based
measurement_kind: concentration at 4 h (ng/mL)
Give just the number in ng/mL; leave the unit off.

Q: Field request: concentration at 4 h | item: Cc1c(COc2cc(OCc3cccc(C#N)c3)c(CN3CCCCC3C(=O)NCCNC(=O)CCCC[C@@H]3SC[C@@H]4NC(=O)N[C@@H]43)cc2Cl)cccc1-c1ccccc1 (stereo partly specified)
Ans: 1460

###

assay: AUC (0 to t) in Sprague-Dawley rat at 1 mg/kg, iv administered as single dose and measured after 48 hrs by HPLC-MS/MS analysis; type: ADME, organism-based; parameters: dose 1 mg/kg, time 48 hrs, route iv; conditions: in vivo
measurement_kind: AUCt
Report the figure along with its unit, number first.

| compound | test_result |
| --- | --- |
| Cc1c(COc2cc(OCc3cccc(C#N)c3)c(CN3CCCCC3C(=O)NCCNC(=O)CCCC[C@@H]3SC[C@@H]4NC(=O)N[C@@H]43)cc2Cl)cccc1-c1ccccc1 (some centres not stated) | 719 ng·h/mL |

Alright, here's another compound for you.
Q: Suppose we examine the compound Cc1c(COc2cc(OCc3cccc(C#N)c3)c(CN3CCCCC3C(=O)NCCN)cc2Cl)cccc1-c1ccccc1 (configuration not stated) ; what AUCt value has been reported?
Ans: 1800 ng·h/mL

###

biological target: Programmed cell death 1 ligand 1 (Mus musculus); assay: Binding affinity to mouse PD-L1 assessed as dissociation constant by SPR analysis
Sequence (Q9EP73 whole entry): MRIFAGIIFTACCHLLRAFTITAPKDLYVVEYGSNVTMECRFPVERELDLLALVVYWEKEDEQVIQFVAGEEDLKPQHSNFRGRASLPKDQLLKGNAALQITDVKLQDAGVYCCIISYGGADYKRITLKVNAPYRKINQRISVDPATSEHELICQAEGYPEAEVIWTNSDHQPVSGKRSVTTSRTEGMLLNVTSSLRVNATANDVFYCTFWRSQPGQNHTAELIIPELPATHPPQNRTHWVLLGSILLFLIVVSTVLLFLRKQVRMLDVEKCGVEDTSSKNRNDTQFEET
measurement_kind: Kd (nM)
Respond numerically; units are nM and should not be typed.

Q: Need Kd, item Cc1c(COc2cc(OCc3cccc(C#N)c3)c(CN3CCCCC3C(=O)NCCNC(=O)CCCC[C@@H]3SC[C@@H]4NC(=O)N[C@@H]43)cc2Cl)cccc1-c1ccccc1 (stereo partly specified)
Ans: 218

###

test: AUC (0 to t) in Sprague-Dawley rat at 20 mg/kg, po measured after 48 hrs by HPLC-MS/MS analysis; assay type: ADME, organism-based; set-up: dose 20 mg/kg, time 48 hrs, route po; details: in vivo
measurement_kind: AUCt (ng·h/mL)
Write the answer as a number in ng·h/mL, unit excluded.

Q: I have this compound here, Cc1c(COc2cc(OCc3cccc(C#N)c3)c(CN3CCCCC3C(=O)NCCNC(=O)CCCC[C@@H]3SC[C@@H]4NC(=O)N[C@@H]43)cc2Cl)cccc1-c1ccccc1 (stereo partly specified) , and I need its recorded AUCt.
Ans: 1160

###

assay: Drug concentration in tumor of C57BL/6 mouse implanted with mouse B16-F10 cells at 50 mg/kg, ip measured after 4 hrs by UPLC-MS/MS analysis; assay type: ADME, organism-based, Neoplasm; details: read-out: Ct
measurement_kind: concentration at 4 h
State the value, then name its unit.

Q: Consider the molecule shown here: Cc1c(COc2cc(OCc3cccc(C#N)c3)c(CN3CCCCC3C(=O)NCCNC(=O)CCCC[C@@H]3SC[C@@H]4NC(=O)N[C@@H]43)cc2Cl)cccc1-c1ccccc1 (stereo partly specified) What is its recorded concentration at 4 h?
Ans: 94.2 ng/mL
